Exercise: state measured pKd for each of the compounds provided.
TEST TARGET: Cytochrome-P450 (CYP) 2C19 (Homo sapiens, UniProt P33261)
Sequence (P33261 whole entry): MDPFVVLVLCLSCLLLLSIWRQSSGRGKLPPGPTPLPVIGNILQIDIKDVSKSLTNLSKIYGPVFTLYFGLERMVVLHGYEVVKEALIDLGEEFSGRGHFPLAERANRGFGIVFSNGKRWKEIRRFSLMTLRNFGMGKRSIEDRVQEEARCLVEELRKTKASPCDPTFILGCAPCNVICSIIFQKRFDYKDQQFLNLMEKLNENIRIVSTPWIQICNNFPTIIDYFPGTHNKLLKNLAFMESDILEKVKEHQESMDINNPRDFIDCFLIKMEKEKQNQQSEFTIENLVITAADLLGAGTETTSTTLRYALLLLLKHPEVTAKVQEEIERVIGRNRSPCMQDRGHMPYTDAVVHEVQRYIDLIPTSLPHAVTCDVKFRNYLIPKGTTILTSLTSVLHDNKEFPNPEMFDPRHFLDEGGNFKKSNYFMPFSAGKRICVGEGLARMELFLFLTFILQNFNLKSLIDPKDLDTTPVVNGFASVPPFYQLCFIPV
MEASUREMENT PROTOCOL: biochemical
# reply with the number alone; pKd is -log10 of concentration in mol/L

**Query** # query: pKd of entry COc1ccc2c(c1)[C@]13CCCC[C@@H]1[C@H](C2)N(C)CC3 [Dexomethorphan]
**Result** 2.10

**Query** # query: pKd of entry CC(C)NCC(O)COc1cccc2ccccc12 (stereo not drawn) [Propranolol]
**Result** 2.18

**Query** # query: pKd of entry O=C(O)Cc1ccccc1Nc1c(Cl)cccc1Cl [Diclofenac]
**Result** 3.14

====

Exercise: state measured pKd for each of the molecules provided.
# reply with the number alone; pKd is -log10 of concentration in mol/L

**Query** Could you share what pKd was measured for CC(C)NCC(O)COc1cccc2ccccc12 (centres unmarked) , tested on Cytochrome-P450 (CYP) 1A2 (Homo sapiens, UniProt P05177)?
**Result** 3.06

**Query** Could you share what pKd was measured for "O=C(O)Cc1ccccc1Nc1c(Cl)cccc1Cl" , tested on Cytochrome-P450 (CYP) 1A2 (Homo sapiens, UniProt P05177)?
**Result** 1.85

====

Data export: Kd values recorded with Cytochrome-P450 (CYP) 2C9 (Homo sapiens).
Sequence (P11712 whole entry): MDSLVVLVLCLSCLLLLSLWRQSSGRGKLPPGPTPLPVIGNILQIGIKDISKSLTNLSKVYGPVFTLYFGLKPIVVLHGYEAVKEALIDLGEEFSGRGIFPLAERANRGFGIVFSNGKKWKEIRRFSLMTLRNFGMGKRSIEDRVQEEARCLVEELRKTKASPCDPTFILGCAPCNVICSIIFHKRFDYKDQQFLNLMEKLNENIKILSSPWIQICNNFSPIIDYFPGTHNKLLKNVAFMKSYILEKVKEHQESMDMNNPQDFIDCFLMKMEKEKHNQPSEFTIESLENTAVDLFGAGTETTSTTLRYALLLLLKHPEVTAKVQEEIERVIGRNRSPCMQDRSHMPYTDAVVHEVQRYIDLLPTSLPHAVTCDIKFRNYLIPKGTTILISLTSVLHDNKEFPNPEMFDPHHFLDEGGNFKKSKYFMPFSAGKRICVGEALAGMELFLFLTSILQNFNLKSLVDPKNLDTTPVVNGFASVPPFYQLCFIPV
Field format: number, assumed mM, no unit text.

**Query** # query: Kd of entry COc1ccc2c(c1)[C@]13CCCC[C@@H]1[C@H](C2)N(C)CC3 [Dexomethorphan]
**Result** 28.3

**Query** # query: Kd of entry CC(C)NCC(O)COc1cccc2ccccc12 (centres unmarked) [Propranolol]
**Result** 5.13

Data provenance is patent US8105845B2.
